- assay.name: NCI Yeast Anticancer Drug Screen. Data for the mlh1 rad18 strain (AID 175)
- settings: S. cerevisiae mlh1 rad18 strain growth inhibition; at 5.0 µM (retest, dose inferred, filed as 0.5)
Compounds without any hit were thinned out: in the full panel of roughly 79,000, 15% have a hit. Calls of active or inactive are those of the source. Cut-off read from the data, not from the text of the source: active = growth inhibition above about 70%; inactive = the rest.
Can you answer with just one of these options? 1 (active), -1 (inactive)

Hi, sorry to bother you, what did the test record for `CCOP(=S)(OCC)SSSP(=S)(OCC)OCC` ? -1

Cool, now `COc1ccccc1/C=C/[N+](=O)[O-]` 1

Cool, now `Cc1[cH-]c(=O)n(-c2ccccc2)n1.[Au+].[Au].c1ccc([PH+](c2ccccc2)c2ccccc2)cc1.c1ccc([PH+](c2ccccc2)c2ccccc2)cc1` -1

Cool, now CCC[CH2][Sn]1([CH2]CCC)[O]C2C(O)OC(CO)C(O)C2[O]1 (centres undefined) 1

Cool, now `O=C(O)C(F)(F)F.[Ag]` 1

Cool, now COC(C)(C)[CH]([Hg][Cl])n1ccccc1=O (centres undefined) 1

Cool, now `COC(=O)[CH2][Sn]([CH2]C(=O)OC)([CH]1CCCCC1)[CH]1CCCCC1` -1

Cool, now CCC1(O)C(=O)OCc2c1cc1n(c2=O)Cc2cc3cc4c(cc3nc2-1)OCO4 (centres undefined) 1

Cool, now `Clc1ccccc1C#[C][Hg][C]#Cc1ccccc1Cl` -1

Cool, now `C[C@]12CC[C@H]3[C@@H](CCC4=CC(=O)CC[C@@H]43)[C@@H]1CC[C@@H]2OC(=O)N(CCCl)N=O` -1

Cool, now COc1ccccc1[As]=[As]c1ccccc1OC (centres undefined) 1

Cool, now `[Hg][c]1ccccc1` 1

Cool, now CC(C)CCC(=O)OC1CCC2(C)C(=CCC3C2CCC2(C)C(O)CCC32)C1 (centres undefined) -1

Cool, now `O=c1c2ccccc2[nH]c(=S)n1-c1cccc(C(F)(F)F)c1` 1

Cool, now `Cc1ccc(OP(=O)(Oc2ccc(C)cc2)Oc2ccc(C)cc2)cc1.Cc1ccc(OP(=O)(Oc2ccc(C)cc2)Oc2ccc(C)cc2)cc1.Cc1ccc(OP(=O)(Oc2ccc(C)cc2)Oc2ccc(C)cc2)cc1.Cc1ccc(OP(=O)(Oc2ccc(C)cc2)Oc2cccc(C)c2)cc1.[Cd+2].[O-][Cl+3]([O-])([O-])O` -1

Cool, now `N#CN(Cc1ccccc1)C(c1ccccc1)(c1ccccc1)c1ccccc1.[I][Sn]([c]1ccccc1)([c]1ccccc1)[c]1ccccc1` 1

Cool, now `[Cl-].[Cl-].[Cl-].[O-]c1cccc2cccnc12.[O-]c1cccc2cccnc12.[O]=[Mo]` 1

Cool, now `C=CCc1cc(Cl)ccc1OC(=O)N(C)C` -1

Cool, now CC12CCC3C(CC=C4CC(SC(=N)N)CCC43C)C1CCC2=O (centres undefined) -1

====

- assay.name: NCI Yeast Anticancer Drug Screen. Data for the bub3 strain (AID 167)
- settings: S. cerevisiae bub3 mutant strain, at 50.0 µM, hits give high values
The panel holds about 79,000 compounds, 15% with a hit somewhere; the sample as a whole holds those more often.
assay.readout: growth inhibition (%)
Numeric answer only, unit % assumed.

Would you kindly share the measured growth inhibition for `ClCCN1CCOCC1` ? 98.1

Cool, now `CN(C)S(=O)(=O)N(SC(F)(Cl)Cl)c1ccccc1` 99.2

Cool, now `N#Cc1cc([N+](=O)[O-])c(Cl)c([N+](=O)[O-])c1` 92.7

Cool, now `CC1=CC(C)=Nc2ccc(C)cc2N1` -6

Cool, now CCOC(=O)C1C(O)=C(P(=O)(C2=C(O)C(C(=O)OCC)C(c3ccc(OC(C)=O)cc3)C(C(=O)O)C2=O)N(CCCl)CCCl)C(=O)C(C(=O)O)C1c1ccc(OC(C)=O)cc1 (configuration not stated) 54.4

Cool, now CC12C(=O)C=CCC1=CCC1C2CCC2(O)C(=O)OC3(C)C4CC5(C)C(COC16OC23C5C6=O)C(=O)O4 (configuration not stated) 69.6

Cool, now `C1CN1[PH+](N1CC1)N1CC1.[C-]#[O+].[C-]#[O+].[C-]#[O+].[C-]#[O+].[C-]#[O+].[Cr]` 2.4

Cool, now `CNC(=O)Oc1ccccc1C(N)=O` -4.55

Cool, now `COP1(=O)OCC(C)(C)CO1` -1.55

Cool, now `Cc1c([N+](=O)[O-])cc(C(C)(C)C)c(O)c1[N+](=O)[O-]` 27.1

Cool, now `[Cl][Sn]([Cl])([c]1ccccc1)[c]1ccccc1.c1ccncc1` 98.1

Cool, now `CC[n+]1c(/C=C/c2ccc(N(CCCl)CCCl)cc2)ccc2cc(NC(=O)/C=C/c3ccccc3)ccc21` 86.5

Cool, now CC12OOC(c3ccccc31)c1c2ccc2ccccc12 (configuration not stated) 90.5

Cool, now O=[As]c1ccc(C(=O)O)cc1 (configuration not stated) -7.2

Cool, now `O=C1C=CC(=O)C(Cl)=C1` 95

Cool, now CC12CCC(O)CC1CCC1C2CCC2(C)C(C3=CC(=O)OC3)CCC12O (configuration not stated) -23.2

Cool, now CNC(Cc1ccccc1)c1ccc(OC)cc1 (configuration not stated) 34.6

Cool, now `C[CH2][Sn]([CH2]C)([CH2]CC(=O)OC)[CH2]CC(=O)OC` -24.2

Cool, now `COc1ccc(/C=C\c2cc(OC)c(OC)c(OC)c2)cc1OC(=O)CCC(=O)O` 14.2

Cool, now `CN(C)[PH+](N(C)C)N(C)C.CN(C)[PH+](N(C)C)N(C)C.[C-]#[O+].[C-]#[O+].[C-]#[O+].[C-]#[O+].[C-]#[O+].[C-]#[O+].[Co].[Co].[Hg]` 99.5

Cool, now `NC(=O)c1ccc(NN=O)nc1` -2.85

Cool, now CC1COC(Nc2cccc3c2CCCC3)=N1 (configuration not stated) -8.1

====

- assay.name: NCI Yeast Anticancer Drug Screen. Data for the cln2 rad14 strain (AID 165);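 note: 0% = growth equal to vehicle treated cultures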
- settings: S. cerevisiae cln2 rad14 strain, at 50.0 µM, hits give high values
The panel holds about 79,000 compounds, 15% with a hit somewhere; the sample as a whole holds those more often.
Assignment: determine reported growth inhibition for the given compounds.
Numeric answer only, unit % assumed.

Would you kindly share the measured growth inhibition for O=P1(N2CCOCC2)OC(c2ccccc2)=CCN1c1ccc(Cl)cc1 (stereo not given) ? -20.1

Cool, now `CCC[CH2][Sn]([I])([CH2]I)[CH2]CCC` 98.6

Cool, now `O=NN(CCF)C(=O)NCCO` 12.4

Cool, now CC(C)[C@](O)(C(=O)OCC1=CC[N+]2([O-])CC[C@@H](O)[C@@H]12)[C@H](C)O (stereo not given in full) -0.85

Cool, now `CCO[C@@H]([CH2][Hg][Cl])[C@](C)([CH2][Hg][Cl])OCC` 99.3

Cool, now C/C=C(\C)C(=O)N[C@@H](c1ccccc1)[C@@H](O)C(=O)OC1C[C@@]2(O)[C@@H](OC(=O)c3ccccc3)[C@@H]3[C@]4(OC(C)=O)CO[C@@H]4C[C@H](O)[C@@]3(C)C(=O)[C@H](OC(C)=O)C(=C1C)C2(C)C (stereo not given in full) 16.9

Cool, now `C/C(=C\COc1ccc2ccc(=O)oc2c1)C1=CC(=O)C(C)(C)O1` 9.85

Cool, now OC1C2[C@@H](O)CCCN2C[C@@H](O)[C@H]1O (stereo not given in full) 8.4

Cool, now `CC(=O)C1(c2ccccc2)CCNCC1` 11.9

Cool, now CCC(C)C(CC)C(=O)NC(N)=O (stereo not given) -1.35

====

- assay.name: NCI Yeast Anticancer Drug Screen. Data for the sgs1 mgt1 strain (AID 161);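 note: 0% = growth of cultures given vehicle only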
- settings: S. cerevisiae sgs1 mgt1 strain, at 50.0 µM, hits give high values
The panel holds about 79,000 compounds, 15% with a hit somewhere; the sample as a whole holds those more often.
assay.readout: growth inhibition (%)
Numeric answer only, unit % assumed.

Would you kindly share the measured growth inhibition for O=[N+]([O-])C(CO)CCC(CO)[N+](=O)[O-] (stereo not given) ? -3.9

Cool, now C/C(=N\N1CN(C(C)C(=O)O)P(N(CCO)CCO)N=C1N)c1cccs1 (stereo not given) 5.85

Cool, now CC(=O)C(CN(CC(C)C)CC(C)C)C(c1ccccc1)c1c(O)c2ccccc2oc1=O (stereo not given) 85

Cool, now CC1CC[N-]C(C)C1.CN(C)C=O.[Cl][Pt][Cl] (stereo not given) 89.8

Cool, now `Cc1nc2cccc(F)c2c(=O)n1-c1nnc(C2CC2)s1` -20.2

Cool, now CC(C)CC(NC(=O)C(Cc1ccccc1)NC(=O)CNC(=O)CNC(=O)C(N)Cc1ccc(O)cc1)C(=O)O (stereo not given) -8.25

Cool, now `O=C(Nc1ccc(O)cc1)c1c(O)[nH]c(=S)[nH]c1=O` 6.25

Cool, now O=CC(O)C(O)C1[O][Sb][O]C1CO (stereo not given) -4.45

Cool, now C[N+](C)(C)CC1CCC(C[N+](C)(C)C)C1=NO (stereo not given) 4.2

Cool, now `O=C([CH-]C(=O)c1ccccc1)c1ccccc1.O=C([CH-]C(=O)c1ccccc1)c1ccccc1.[Nd+3].[OH-].[OH3+]` 94.2

Every entry's value here was drawn from PubChem BioAssay (NCI).
